Where these numbers come from: paper PMC3921674

tgt: WDR5 (wild type, isothermal calorimetry) (UniProt P61964 1-334)
test.protocol: ITC
pKd: −log10 of the molar value.
property.measured: pKd

binder="ARTKQTARKS [H3(1-10)]" val=4.51
binder="GSARAEVHLRKSAFDMFNFLASKHRQPPEYNPNDEEEEEVQ [MLL1(3762-3802)]" val=6.01
